test: In vitro toxicity assay (resazurin), HL-60 cells
Assay type: cell-based, human
testConditions: human, HL-60 cells GI50
quantityMeasured: GI50 at 72 h (µM)
Provide only the numeric value, understood in µM.

Field request: GI50 at 72 h | item: C[C@@H]1[C@H](O)[C@@H](C)/C=C/C=C/C=C/C=C/C=C/C=C/C=C/[C@H](O[C@@H]2O[C@H](C)[C@@H](O)[C@H](N)[C@@H]2O)C[C@@H]2O[C@](O)(C[C@@H](O)C[C@@H](O)[C@H](O)CC[C@@H](O)C[C@@H](O)CC(=O)O[C@H]1C)C[C@H](O)[C@H]2C(=O)O [Amphotericin B, reference compound]
50.7

###

// each record: one item and its GI50 for human myeloid leukaemia HL-60 cells
Unit µM implied. Number only.

CC1(C)C(=O)C=C[C@]2(C)C3C(=O)C[C@@]4(C)[C@H](c5ccoc5)OC(=O)[C@H]5O[C@]54[C@]3(C)CC[C@@H]12 (some centres unmarked) = 31.5

Now consider a different molecule.
Give GI50 (human myeloid leukaemia HL-60 cells) of the following molecule: CC1(C)C(=O)C=C[C@]2(C)C3CC[C@@]4(C)[C@H](c5ccoc5)OC(=O)[C@H]5O[C@]54[C@]3(C)[C@H](O)C[C@@H]12 (some centres unmarked)
46.2

The origin of these recorded values is paper PMC7253382.
